molecular target: recombinant CD73 (Homo sapiens (Human), UniProt P21589); assay: Assay 2: Inhibition of the CD73 enzyme in vitro (0.05 nM CD73, 1 hour 37° C., Malachite Green); type: biochemical; conditions: 0.05 nM CD73, 50 μM AMP, 1 hour at 37° C.
Sequence (P21589 27-547): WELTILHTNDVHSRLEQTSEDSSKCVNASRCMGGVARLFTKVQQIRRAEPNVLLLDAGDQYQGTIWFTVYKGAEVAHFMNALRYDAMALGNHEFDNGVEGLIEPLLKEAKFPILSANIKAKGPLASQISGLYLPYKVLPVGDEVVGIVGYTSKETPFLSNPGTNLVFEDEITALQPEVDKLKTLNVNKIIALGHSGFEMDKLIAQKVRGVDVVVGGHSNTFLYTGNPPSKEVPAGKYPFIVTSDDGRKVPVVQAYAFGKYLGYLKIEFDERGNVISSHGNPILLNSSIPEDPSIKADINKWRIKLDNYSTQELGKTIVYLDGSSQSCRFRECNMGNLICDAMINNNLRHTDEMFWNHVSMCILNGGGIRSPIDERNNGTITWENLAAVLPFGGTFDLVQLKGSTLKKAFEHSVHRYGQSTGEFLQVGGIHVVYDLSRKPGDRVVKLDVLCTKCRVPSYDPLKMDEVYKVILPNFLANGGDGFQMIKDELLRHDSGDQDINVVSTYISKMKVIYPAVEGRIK
Items are presented alongside their recorded IC50.

MOLECULE: C#C[C@@]1(O)[C@@H](COC(Cc2ccc(N3CCCNC3=O)cc2)(C(=O)O)C(=O)O)O[C@@H](n2nc(C)c3ccc(Cl)nc32)[C@@H]1O [Example 131]
CMP: >
IC50 (nM): 100

MOLECULE: C#C[C@@]1(O)[C@@H](COC(Cc2ccccc2)(C(=O)O)C(=O)O)O[C@@H](n2cnc3c(N4CCC4CO)nc(Cl)nc32)[C@@H]1O (stereo partly drawn) [Example 42]
CMP: =
IC50 (nM): 1

MOLECULE: C#C[C@@]1(O)[C@@H](COC(Cc2ccc(-c3cccn(COC)c3=O)cc2)(C(=O)O)C(=O)O)O[C@@H](n2cnc3c(N)nc(Cl)nc32)[C@@H]1O [Compound 11]
CMP: =
IC50 (nM): 0.06
